Provide the recorded pKi for the entries that follow.
# TEST SYSTEM: MPEP allosteric binding site on mGluR5 (Rattus norvegicus)
# Sequence (P31424 21-1203): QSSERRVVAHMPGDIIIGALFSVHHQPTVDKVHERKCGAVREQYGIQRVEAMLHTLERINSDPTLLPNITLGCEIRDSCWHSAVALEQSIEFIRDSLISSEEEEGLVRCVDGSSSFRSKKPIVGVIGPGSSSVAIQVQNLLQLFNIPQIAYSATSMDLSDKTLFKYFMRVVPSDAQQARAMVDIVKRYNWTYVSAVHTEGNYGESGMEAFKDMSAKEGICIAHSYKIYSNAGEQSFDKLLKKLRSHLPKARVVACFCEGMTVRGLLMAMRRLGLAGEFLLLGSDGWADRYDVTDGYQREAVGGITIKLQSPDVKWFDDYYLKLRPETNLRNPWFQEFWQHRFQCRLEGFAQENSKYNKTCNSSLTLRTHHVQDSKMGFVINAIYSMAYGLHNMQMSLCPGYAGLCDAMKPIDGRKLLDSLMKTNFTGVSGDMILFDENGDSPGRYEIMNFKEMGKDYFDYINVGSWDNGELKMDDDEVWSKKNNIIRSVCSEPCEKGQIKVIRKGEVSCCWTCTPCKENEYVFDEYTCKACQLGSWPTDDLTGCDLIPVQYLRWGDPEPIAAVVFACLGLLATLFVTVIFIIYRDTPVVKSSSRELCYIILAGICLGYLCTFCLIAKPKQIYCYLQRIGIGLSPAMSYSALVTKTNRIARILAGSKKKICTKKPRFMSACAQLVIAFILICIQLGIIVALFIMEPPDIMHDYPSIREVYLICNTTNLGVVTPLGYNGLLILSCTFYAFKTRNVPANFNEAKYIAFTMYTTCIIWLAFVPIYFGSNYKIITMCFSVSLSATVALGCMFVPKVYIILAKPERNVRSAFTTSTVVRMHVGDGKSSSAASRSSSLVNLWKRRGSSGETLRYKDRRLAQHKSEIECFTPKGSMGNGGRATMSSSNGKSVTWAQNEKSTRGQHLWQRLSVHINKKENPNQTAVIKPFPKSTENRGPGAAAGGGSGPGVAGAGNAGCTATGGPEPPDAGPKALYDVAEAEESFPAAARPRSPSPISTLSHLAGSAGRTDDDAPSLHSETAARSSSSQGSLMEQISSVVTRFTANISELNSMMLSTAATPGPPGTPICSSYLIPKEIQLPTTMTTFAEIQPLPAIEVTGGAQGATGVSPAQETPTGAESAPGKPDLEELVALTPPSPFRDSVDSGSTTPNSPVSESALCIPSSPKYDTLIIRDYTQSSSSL
# EXPERIMENT DESCRIPTION: Displacement of [3H]3-methoxy-5-
Numbers only, as −log10 of the molar value.

Hi! Can you tell me pKi for each of these molecules?
1. COc1ccccc1C(=O)Nc1cccc(NC(=O)c2cccc(Cl)c2)c1
2. O=C(Nc1ccccc1O)c1cccc(N2C(=O)c3ccccc3C2=O)c1

Response given:
5.96
6.50

Where do the numbers come from? From paper PMC3177597.
